Collected inhibition at 3 µM values appear next to each entry.
# Target Desc: CYP1A2 (Homo sapiens, UniProt P05177)
# Sequence (P05177 whole entry): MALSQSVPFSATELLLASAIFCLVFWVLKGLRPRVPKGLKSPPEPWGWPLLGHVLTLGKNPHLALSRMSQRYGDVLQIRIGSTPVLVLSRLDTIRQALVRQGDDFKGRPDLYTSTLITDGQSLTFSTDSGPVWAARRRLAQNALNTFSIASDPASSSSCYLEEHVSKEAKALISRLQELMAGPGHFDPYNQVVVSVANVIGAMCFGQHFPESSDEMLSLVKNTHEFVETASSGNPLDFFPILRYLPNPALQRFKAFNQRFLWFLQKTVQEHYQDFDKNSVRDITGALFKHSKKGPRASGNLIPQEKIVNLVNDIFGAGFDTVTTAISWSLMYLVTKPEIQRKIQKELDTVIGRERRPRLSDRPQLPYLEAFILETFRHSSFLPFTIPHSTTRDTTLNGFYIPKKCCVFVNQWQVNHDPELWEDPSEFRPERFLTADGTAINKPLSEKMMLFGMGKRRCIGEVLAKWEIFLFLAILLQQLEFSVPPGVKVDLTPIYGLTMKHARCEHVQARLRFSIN
# Test Method Notes: Inhibition of CYP1A2 (unknown origin) at 3 uM relative to control
# Format: ADME
Value Type: inhibition at 3 µM

Cc1cccnc1N(C(=O)c1ccc(-c2cnn3cccnc23)cc1)[C@@H]1CCCNC1    < 5%
O=C(c1ccc(-c2cnn3cccnc23)cc1)N(c1ncccc1C(F)(F)F)[C@@H]1CCCNC1    < 40%

###

# Test Method Notes: Cmax in rat at 25 mg/kg, po
# Format: ADME, organism-based
# Parameters: dose 25 mg/kg, route po
# Measurement Context: in vivo
Collected Cmax values appear next to each entry.
Value Type: Cmax

O=C(c1ccc(-n2nnc3cccnc32)cc1)N(c1ncccc1Cl)[C@@H]1CCCNC1    0.312 µg/mL
Cc1cccnc1N(C(=O)c1ccc(-c2cnn3cccnc23)cc1)[C@@H]1CCCNC1    0.255 µg/mL

###

# Target Desc: CYP2C9 (Homo sapiens, UniProt P11712)
# Sequence (P11712 whole entry): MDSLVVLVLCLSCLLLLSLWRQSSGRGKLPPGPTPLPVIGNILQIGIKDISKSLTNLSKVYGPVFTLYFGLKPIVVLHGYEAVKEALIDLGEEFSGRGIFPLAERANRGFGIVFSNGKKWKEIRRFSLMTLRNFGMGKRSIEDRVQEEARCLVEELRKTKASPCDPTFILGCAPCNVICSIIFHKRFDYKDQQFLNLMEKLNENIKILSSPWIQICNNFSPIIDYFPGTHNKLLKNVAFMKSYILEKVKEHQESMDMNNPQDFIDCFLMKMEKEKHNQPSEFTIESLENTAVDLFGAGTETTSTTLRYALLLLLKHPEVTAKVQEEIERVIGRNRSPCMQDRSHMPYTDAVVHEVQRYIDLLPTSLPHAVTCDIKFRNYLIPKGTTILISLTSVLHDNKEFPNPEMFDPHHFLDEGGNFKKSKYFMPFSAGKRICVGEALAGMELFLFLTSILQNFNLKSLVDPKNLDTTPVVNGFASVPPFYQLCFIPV
# Test Method Notes: Inhibition of CYP2C9 (unknown origin) at 3 uM relative to control
# Assay type: ADME
Value Type: inhibition at 3 µM

Cc1cccnc1N(C(=O)c1ccc(-c2cnn3cccnc23)cc1)[C@@H]1CCCNC1    < 5%
O=C(c1ccc(-c2cnn3cccnc23)cc1)N(c1ncccc1C(F)(F)F)[C@@H]1CCCNC1    < 40%

###

# Target Desc: Proprotein convertase subtilisin/kexin type 9 (Homo sapiens, UniProt Q8NBP7)
# Sequence (Q8NBP7 31-152 limits assumed): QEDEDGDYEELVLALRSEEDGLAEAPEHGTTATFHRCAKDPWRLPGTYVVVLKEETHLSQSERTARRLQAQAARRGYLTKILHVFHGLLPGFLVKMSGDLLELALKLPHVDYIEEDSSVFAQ
# Sequence (Q8NBP7 153-692 limits assumed): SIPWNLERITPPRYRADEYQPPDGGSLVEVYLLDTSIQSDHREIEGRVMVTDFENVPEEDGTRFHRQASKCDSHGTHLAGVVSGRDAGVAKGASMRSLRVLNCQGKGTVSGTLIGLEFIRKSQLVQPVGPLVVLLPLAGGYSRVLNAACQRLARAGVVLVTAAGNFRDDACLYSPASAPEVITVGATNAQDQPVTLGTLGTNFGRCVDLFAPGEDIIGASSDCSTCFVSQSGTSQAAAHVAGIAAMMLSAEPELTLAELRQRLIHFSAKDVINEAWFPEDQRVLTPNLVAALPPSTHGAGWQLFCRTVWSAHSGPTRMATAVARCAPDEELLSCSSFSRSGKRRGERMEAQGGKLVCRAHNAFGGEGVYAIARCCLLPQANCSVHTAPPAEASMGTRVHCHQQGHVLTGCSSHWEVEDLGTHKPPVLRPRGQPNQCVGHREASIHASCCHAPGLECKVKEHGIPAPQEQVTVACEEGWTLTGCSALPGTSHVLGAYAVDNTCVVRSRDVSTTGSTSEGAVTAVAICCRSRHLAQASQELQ
# Test Method Notes: Inhibition of full length human PCSK9 expressed in human Huh-7 cells by ELISA analysis
pIC50: −log10 of the molar value.
Collected pIC50 values appear next to each entry.
Value Type: pIC50

COc1cccnc1N(C(=O)c1ccc(-c2cnn3cccnc23)cc1)[C@@H]1CCCNC1    4.77
C[C@@H]1CNC[C@H](N(C(=O)c2ccc(-n3nnc4cccnc43)cc2)c2ncccc2Cl)C1    4.77
O=C(c1ccc(-n2nnc3cccnc32)cc1)N(c1ncccc1C(F)(F)F)[C@@H]1CCCNC1    5.78
O=C(c1ccc(-c2cnn3cccnc23)cc1)N(c1ncccc1C(F)(F)F)[C@@H]1CCCNC1    5.55
Cc1cccnc1N(C(=O)c1ccc(-c2cnn3cccnc23)cc1)[C@@H]1CCCNC1    5.65

###

Collected Papp values appear next to each entry.
# Test Method Notes: Apparent permeability of compound in MDCK-II cells
# Type: ADME, cell-based, Canis lupus familiaris
# Measurement Context: dog, read-out: permeability
Value Type: Papp (×10⁻⁶ cm/s)

O=C(c1ccc(-c2cnn3cccnc23)cc1)N(c1ncccc1C(F)(F)F)[C@@H]1CCCNC1    7
Cc1cccnc1N(C(=O)c1ccc(-c2cnn3cccnc23)cc1)[C@@H]1CCCNC1    7

###

# Test Method Notes: Cytotoxicity against rat Bone marrow cell assessed as inhibition of cell growth with puromycin as high potent effect standard by celltiter-glo assay
# Type: toxicity, cell-based
# Measurement Context: rat bone marrow cells
Value Type: IC50 (nM)

O=C(c1ccc(-n2nnc3cccnc32)cc1)N(c1nccc2ccsc12)[C@@H]1CCCNC1    280
O=C(c1ccc(-n2nnc3cccnc32)cc1)N(c1nccn1C1CC1)[C@@H]1CCCNC1    1240
Cn1ncc2ccnc(N(C(=O)c3ccc(-n4nnc5cccnc54)cc3)[C@@H]3CCCNC3)c21    180
Cc1cnc2c(c1)nnn2-c1ccc(C(=O)N(c2ncccc2Cl)[C@@H]2CCCNC2)nc1    19900
